Listed molecules paired with reported Experiment results (relative activation fold) PPARα
# TARGET OR SYSTEM: PPARα (Homo sapiens (Human))
# Sequence (Q07869 whole entry, species assumed): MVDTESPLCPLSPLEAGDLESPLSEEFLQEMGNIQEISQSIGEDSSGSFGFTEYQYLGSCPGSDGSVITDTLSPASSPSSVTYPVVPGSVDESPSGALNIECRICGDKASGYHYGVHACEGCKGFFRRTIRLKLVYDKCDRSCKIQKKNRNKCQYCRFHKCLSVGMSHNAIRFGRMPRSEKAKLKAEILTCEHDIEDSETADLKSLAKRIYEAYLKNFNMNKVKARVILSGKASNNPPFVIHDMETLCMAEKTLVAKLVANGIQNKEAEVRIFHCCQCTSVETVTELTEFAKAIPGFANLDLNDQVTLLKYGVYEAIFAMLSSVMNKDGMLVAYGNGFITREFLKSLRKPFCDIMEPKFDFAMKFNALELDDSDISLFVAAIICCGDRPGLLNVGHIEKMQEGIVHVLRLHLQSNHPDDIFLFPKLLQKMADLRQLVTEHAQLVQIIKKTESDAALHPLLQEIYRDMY
# Sequence (P19793 whole entry partner, species assumed): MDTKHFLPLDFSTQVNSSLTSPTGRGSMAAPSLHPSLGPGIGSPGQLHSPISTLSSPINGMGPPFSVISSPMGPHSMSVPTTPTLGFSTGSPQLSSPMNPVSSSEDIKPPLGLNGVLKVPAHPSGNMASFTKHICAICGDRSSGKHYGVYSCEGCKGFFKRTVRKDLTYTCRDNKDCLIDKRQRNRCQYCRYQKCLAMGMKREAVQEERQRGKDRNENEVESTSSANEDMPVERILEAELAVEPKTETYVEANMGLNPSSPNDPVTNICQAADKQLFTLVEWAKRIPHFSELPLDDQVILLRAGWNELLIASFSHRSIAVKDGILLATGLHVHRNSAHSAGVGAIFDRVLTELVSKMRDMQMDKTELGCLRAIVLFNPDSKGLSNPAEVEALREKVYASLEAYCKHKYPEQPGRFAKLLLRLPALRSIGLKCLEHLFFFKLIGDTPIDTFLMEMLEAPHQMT
# ASSAY COMMENT: Nuclear receptor reporter gene (luciferase) screening model, PPARα activation in HepG2 cells
# Type: cell-based
# CONDITION CONTEXT: 0.001 uM; HepG2; solvent control = 1
Express your answer in fold, writing the number without its unit.

Recorded results for 3 molecules are shown here.
* CCc1cc(OCCc2nc(-c3ccc(C)cc3)oc2C)ccc1CCC(=O)O | 1.33
* CCc1cc(OCCc2nc(-c3ccc(C(N)=O)cc3)oc2C)ccc1CCC(=O)O | 1.25
* CCc1cc(OCCc2nc(-c3ccc([N+](=O)[O-])cc3)oc2C)ccc1CCC(=O)O | 1.15

Fill in the recorded Experiment results (relative activation fold) PPARα for this molecule, with PPARα (Homo sapiens (Human)) as test system: `CCc1cc(OCCc2nc(-c3ccc(F)cc3)oc2C)ccc1CCC(=O)O`
1.00

# get_value(readout= Experiment results (relative activation fold) PPARα, system= PPARα (Homo sapiens (Human))) for `CCc1cc(OCCc2nc(-c3ccc(C(F)(F)F)cc3)oc2C)ccc1CCC(=O)O`
0.99

What reported Experiment results (relative activation fold) PPARα corresponds to `CCc1cc(OCCc2nc(-c3ccc(-c4nnn[nH]4)cc3)oc2C)ccc1CCC(=O)O` on PPARα (Homo sapiens (Human))?
1.33

Checklist item: Experiment results (relative activation fold) PPARα tested on PPARα (Homo sapiens (Human)), entry `CCc1cc(OCCc2nc(-c3ccc(C#N)cc3)oc2C)ccc1CCC(=O)O` , value?
1.23

Fill in the recorded Experiment results (relative activation fold) PPARα for this molecule, with PPARα (Homo sapiens (Human)) as test system: `CCc1cc(OCCc2nc(-c3ccc(C(C)(C)C)cc3)oc2C)ccc1CCC(=O)O`
1.14

What value of Experiment results (relative activation fold) PPARα on PPARα (Homo sapiens (Human)) does `CCc1cc(OCCc2coc(-c3ccc(C(F)(F)F)cc3)n2)ccc1CCC(=O)O` have?
1.01

----------
Reported Experiment results (relative activation fold) PPARγ values follow for various compounds
# TARGET OR SYSTEM: PPARγ (Homo sapiens (Human), UniProt P37231)
# Sequence (P37231 whole entry, species assumed): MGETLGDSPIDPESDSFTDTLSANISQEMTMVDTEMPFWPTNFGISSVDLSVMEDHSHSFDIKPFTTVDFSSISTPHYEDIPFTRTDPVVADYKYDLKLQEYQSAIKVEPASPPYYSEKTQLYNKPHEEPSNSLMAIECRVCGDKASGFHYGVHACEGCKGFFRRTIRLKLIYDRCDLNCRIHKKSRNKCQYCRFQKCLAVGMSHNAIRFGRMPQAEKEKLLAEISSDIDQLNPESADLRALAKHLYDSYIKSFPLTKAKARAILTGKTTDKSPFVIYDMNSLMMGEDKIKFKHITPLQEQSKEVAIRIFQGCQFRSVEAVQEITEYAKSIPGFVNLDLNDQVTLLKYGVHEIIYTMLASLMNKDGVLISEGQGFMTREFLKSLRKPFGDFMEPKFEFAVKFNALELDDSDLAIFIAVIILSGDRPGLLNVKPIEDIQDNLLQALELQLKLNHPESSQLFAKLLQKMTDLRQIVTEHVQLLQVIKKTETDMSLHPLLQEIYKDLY
# Sequence (P19793 whole entry partner, species assumed): as the sequence (P19793 whole entry partner, species assumed) above
# ASSAY COMMENT: Nuclear receptor reporter gene (luciferase) screening model, PPARγ activation in HepG2 cells
# Assay type: cell-based
# CONDITION CONTEXT: 0.001 uM; HepG2; solvent control = 1
Note: unit fold is implicit; provide only the numeric part.

- CCc1cc(OCCc2nc(-c3ccc(C#N)cc3)oc2C)ccc1CCC(=O)O: 1.38
- CCc1cc(OCCc2nc(-c3ccc(C)cc3)oc2C)ccc1CCC(=O)O: 1.98
- CCc1cc(OCCc2nc(-c3ccc(F)cc3)oc2C)ccc1CCC(=O)O: 1.09
- CCc1cc(OCCc2nc(-c3ccc(C(F)(F)F)cc3)oc2C)ccc1CCC(=O)O: 1.10

Attention now shifts to the item below.
Return Experiment results (relative activation fold) PPARγ measured with PPARγ (Homo sapiens (Human), UniProt P37231) given this compound: `CCc1cc(OCCc2nc(-c3ccc(C(N)=O)cc3)oc2C)ccc1CCC(=O)O`
1.09

----------
# TARGET OR SYSTEM: PPARγ (Homo sapiens (Human), UniProt P37231)
# ASSAY COMMENT: Nuclear receptor reporter gene (luciferase) screening model, PPARγ activation in HepG2 cells
# Format: cell-based
# CONDITION CONTEXT: 0.001 uM; HepG2; solvent control = 1
READOUT KIND: Experiment results (relative activation fold) PPARγ
The reply should consist of the numeric value with the unit placed after it.

Use the examples below as a reference point.
• CCc1cc(OCCc2nc(-c3ccc([N+](=O)[O-])cc3)oc2C)ccc1CCC(=O)O = 1.29 fold
• CCc1cc(OCCc2nc(-c3ccc(C(C)(C)C)cc3)oc2C)ccc1CCC(=O)O = 2.70 fold

What value of Experiment results (relative activation fold) PPARγ on PPARγ (Homo sapiens (Human), UniProt P37231) does `CCc1cc(OCCc2coc(-c3ccc(C(F)(F)F)cc3)n2)ccc1CCC(=O)O` have?
1.09 fold

Form field - read-out: Experiment results (relative activation fold) PPARγ; system: PPARγ (Homo sapiens (Human), UniProt P37231); submitted item: `CCc1cc(OCCc2nc(-c3ccc(-c4nnn[nH]4)cc3)oc2C)ccc1CCC(=O)O`
0.92 fold
